system: SK-MEL-5 melanoma; experiment: NCI tumour cell line growth inhibition, 48 h; in the data active means GI50 below about 0.43 µM; inactive means the rest
I would appreciate it if you answered using one of these outcomes: label 1 = active, label 0 = inactive

Cc1cn2c(/C=C3/C(=O)Nc4c3ccc3ccccc43)c(C(F)(F)F)nc2s1 : label 0

Query: What was the test verdict on CN(C)C(=O)Nc1nc2cc(Cl)c(Cl)cc2[nH]1 ?
Reply: label 0

Query: What was the test verdict on COC(=O)c1cc(-c2ccccc2)[nH]c1N/N=C/c1c(Cl)cccc1Cl ?
Reply: label 1

Query: What was the test verdict on COC(=O)c1c2c(c(C)[n+]([O-])c1C)C(=O)C=C(NCc1ccccc1)C2=O ?
Reply: label 1

###

tested on: BT-549 breast; experiment: NCI tumour cell line growth inhibition, 48 h
RESULT_TYPE: TGI

A selection of reference data follows.
Nc1ccn(C2CC(F)C(CO)O2)c(=O)n1 (centres undefined) : > 100 µM
CC(=O)n1cc(C2CC23N=C(c2ccccc2)OC3=O)c2ccccc21 (centres undefined) : 30.3 µM
C=C1C(=O)O[C@H]2[C@H]1CC/C(COC(=O)CCCCCC(=O)OC/C1=C/CC[C@@]3(C)O[C@H]3[C@H]3OC(=O)C(=C)[C@@H]3CC1)=C\CC[C@@]1(C)O[C@@H]21 : 3.02 µM
CC(C)(C)OC(=O)[C@@H]1CCC(=O)N1C1(c2ccccc2)c2ccccc2-c2ccccc21 : > 100 µM
O=C(O)C[C@H](O)C[C@H](O)/C=C/c1c(C2CC2)nc2ccccc2c1-c1ccc(F)cc1 : > 100 µM

Query: // Input: [2H]C([2H])([2H])NC(=O)c1nnc(NC(=O)C2CC2)cc1Nc1cccc(-c2ncn(C)n2)c1OC . Output its TGI only.
Reply: > 100 µM

###

test system: MCF7 breast; experiment: NCI tumour cell line growth inhibition, 48 h
RESULT_TYPE: TGI

Query: // Input: CC[C@@]1(O)C(=O)OCc2c1cc1n(c2=O)Cc2c-1nc1ccc(O)cc1c2[Si](C)(C)C(C)(C)C . Output its TGI only.
Reply: > 41.2 µM

Query: // Input: C[C@]12CC[C@H]3[C@@H](CCC4=CC(=O)C=C[C@@]43OC(=O)C(F)(F)F)[C@@H]1CCC2=O . Output its TGI only.
Reply: > 100 µM

###

tested on: MOLT-4 leukemia; test: NCI tumour cell line growth inhibition, 48 h
RESULT_TYPE: GI50

Query: // Input: COc1ccc(-c2cc(=O)n(-c3nc4ccccc4[nH]3)[nH]2)cc1OC . Output its GI50 only.
Reply: 261 nM

Query: // Input: CCCCC(SC(=S)N1CCCC1)C(=O)Nc1nc(CC(=O)OCC)cs1 (stereo not given) . Output its GI50 only.
Reply: 1910 nM

Query: // Input: Cc1ccc(/C=C(\C#N)c2cc3ccccc3n2C)cc1 . Output its GI50 only.
Reply: 467 nM

Query: // Input: COc1c(C(C)=O)c(OCCCCOc2c(C(C)=O)c(OC)c3ccoc3c2OC)c(OC)c2occc12 . Output its GI50 only.
Reply: 1230 nM

Query: // Input: COc1ccc2c(c1)nc(NNC(=O)c1cnccn1)c1cccn12 . Output its GI50 only.
Reply: 159 nM

###

test system: A498 renal; assay: NCI tumour cell line growth inhibition, 48 h
Documented TGI across a set of compounds

A selection of reference data follows.
COc1c(C(C)=O)c(OCCCCOc2c(C(C)=O)c(OC)c3ccoc3c2OC)c(OC)c2occc12 : > 100 µM
Cc1cc2[nH]c3c(C#N)c(-c4ccccc4)c(N=Nc4ccc(F)cc4)c(=O)n3c2cc1C : > 100 µM
CNc1nnc(CCCCCCCCc2nnc(NC)o2)o1 : > 100 µM
Cc1ccc2nc3ccccc3c(NCc3ccc(Cl)cc3)c2c1 : 11.9 µM

Query: // Input: CCC[CH2][Sn]([CH2]CCC)([O]C(=O)c1cc(OC)c(OC)cc1OC)[O][Sn]([CH2]CCC)([CH2]CCC)[O]C(=O)c1cc(OC)c(OC)cc1OC . Output its TGI only.
Reply: 1.76 µM

Query: // Input: O=S(=O)(NC1CCCCC1)c1ccc2c(c1)OCCOCCOCCOCCO2 . Output its TGI only.
Reply: > 100 µM

###

test system: MALME-3M melanoma; experiment: NCI tumour cell line growth inhibition, 48 h; in the data active = GI50 below about 0.43 µM; inactive = the rest
I would appreciate it if you answered using one of these outcomes: active, inactive

Cc1ccc(S(=O)(=O)Oc2ccc3c4c(c(=O)oc3c2)CCCCCC4)cc1 : inactive
Fc1ccc(-c2ncn(C3CCNCC3)c2-c2ccnc(Oc3ccc4c(c3)OCO4)n2)cc1 : inactive

Query: What was the test verdict on CCC[CH2][Sn]([CH2]CCC)([O]C(=O)c1cc(OC)c(OC)cc1OC)[O][Sn]([CH2]CCC)([CH2]CCC)[O]C(=O)c1cc(OC)c(OC)cc1OC ?
Reply: active

###

tested on: T-47D breast; assay: NCI tumour cell line growth inhibition, 48 h
Documented TGI across a set of compounds

CC(=O)O[C@H]1CC[C@@]2(C)C(=CC[C@@H]3[C@@H]2CC[C@]2(C)C(=N/O)/C(=C\c4ccccc4)C[C@@H]32)C1 : > 93.7 µM
C=C(C)[C@@H]1CCC=C2CC[C@]3(C)[C@H](CC[C@@H]4[C@@]5(C)CCCNC(C)(C)[C@@H]5CC[C@]43C)[C@H]21 : 4.83 µM

// next entry
Query: # lookup: T-47D breast TGI, key = O=C(Nc1sccc1S(=O)(=O)c1ccc(Cl)cc1)c1ccc(F)cc1F
Reply: > 100 µM

###

tested on: OVCAR-4 ovarian; assay: NCI tumour cell line growth inhibition, 48 h
RESULT_TYPE: TGI

COc1cc(/C=C2\CC/C(=C\c3cc(OC)c(O)c(OC)c3)C2=O)cc(OC)c1O : 6.05 µM
COC(=O)CCC(NC(=S)N/N=C(\C)c1ccc[nH]1)C(=O)OC (stereo unspecified) : > 100 µM

Query: // Input: C[C@]12CC[C@H]3[C@@H](CCC4=CC(=O)C=C[C@@]43OC(=O)C(F)(F)F)[C@@H]1CCC2=O . Output its TGI only.
Reply: > 100 µM

Query: // Input: CCCCc1ccc(Nc2ncc3ncn(COCCO)c3n2)cc1 . Output its TGI only.
Reply: > 100 µM

Query: // Input: C1=NCCNCCNCCN=Cc2ccc(cc2)OCc2cccc(n2)COc2ccc1cc2 . Output its TGI only.
Reply: > 100 µM

Query: // Input: COc1ccc(C(=O)Cn2c(C(=O)c3ccccc3)nc3ccccc32)cc1 . Output its TGI only.
Reply: > 100 µM

###

system: A549 NSCLC; assay: NCI tumour cell line growth inhibition, 48 h
RESULT_TYPE: TGI

C/C=C(\C)C(=O)OC1CC(OC(C)=O)C2(C(=O)OC)COC3C2C1(C)C1C2(C(=O)OC)OCC1(C3O)C1(O)C3CC(C4(O)C=COC4O3)C1(C)O2 (stereo not given) : > 100 µM
COc1ccc(-c2cc(=O)n(-c3nc4ccccc4[nH]3)[nH]2)cc1OC : 81.9 µM
O=C(O)CCC(=O)OCN1C(=O)C2C3C=CC(C2C1=O)C1C2C(=O)N(COC(=O)CCC(=O)O)C(=O)C2C31 (stereo not given) : > 100 µM
O=C1NC(=O)c2ccccc2/C1=C/c1ccc2c(c1)OCO2 : > 100 µM
CCOC(=O)N1C/C(=C\c2ccccc2)C(=O)/C(=C/c2ccccc2)C1 : 54.3 µM

// next entry
Query: // Input: CCO/C=C1\N=C(c2ccc(Cl)c(Cl)c2)OC1=O . Output its TGI only.
Reply: > 100 µM

###

system: SF-268 CNS; assay: NCI tumour cell line growth inhibition, 48 h; in the data active = GI50 below about 0.43 µM; inactive = the rest
I would appreciate it if you answered using one of these outcomes: active, inactive

Example cases with answers are listed next.
NC(=N\N=C/c1ccc(O)cc1)/C(N)=N\N=C/c1ccc(O)cc1 : inactive
COC(C)(C)[C@@H](O)[C@H](O)C[C@H](C)C1=C2CC[C@@H]3[C@@]4(C)CC[C@@H](OC(C)=O)C(C)(C)[C@@H]4C[C@@H](OC4OC(COC(C)=O)C(O)C(O)C4O)[C@@]3(C)[C@]2(C)CC1 (stereo partly drawn) : inactive
CCC1(O)CC(OC2CC(N(C)C)C(OC3CC(O)C(OC4OC(C)C(=O)C=C4N)C(C)O3)C(C)O2)c2c(cc3c(c2O)C(=O)c2c(O)cccc2C3=O)C1C(=O)OC (stereo not drawn) : active

Query: What was the test verdict on COC(=O)c1cc(-c2ccccc2)[nH]c1N/N=C/c1c(Cl)cccc1Cl ?
Reply: inactive

Query: What was the test verdict on COc1ccc2c(c1)/C(=C\c1ccncc1)C(=O)N2 ?
Reply: inactive

Query: What was the test verdict on Cc1ccc2nc3ccccc3c(NCc3ccc(Cl)cc3)c2c1 ?
Reply: inactive

Query: What was the test verdict on Fc1ccc(-c2ncn(C3CCNCC3)c2-c2ccnc(Oc3ccc4c(c3)OCO4)n2)cc1 ?
Reply: inactive

Query: What was the test verdict on CCCCCCCCCCCC1=NC(C)(C)CN1C(C)(C)CO ?
Reply: inactive

Reference for the values: PubChem BioAssay (NCI)
